tested on: SF-268 CNS; test: NCI tumour cell line growth inhibition, 48 h
Measured log10 of TGI, listed per entry for reference.
MEASUREMENT TYPE: log10 of TGI (log10 of the value in µM)

>>> measured_result("CC1=CCC[C@@]2(C)C(CC[C@@H]2C(C)/C=C/C(C)C)c2ccc(cc2C(=O)O)C[C@@H](O)CC1 (stereo partly specified)")
1.47
>>> measured_result("CN(C)CCCOc1ccccc1NC1=C(Cl)C(=O)C(Nc2ccccc2OCCCN(C)C)=C(Cl)C1=O")
0.42
>>> measured_result("C=C(C)[C@@]1(O)O[C@H]2C[C@@]3(C)OC(=CC3=O)/C(C)=C\\[C@@H]3OC(=O)[C@@]1(C)[C@H]32")
1.95
>>> measured_result("C[n+]1c(/C=C\\C=C\\N2CCCCC2)sc2ccccc21")
1.17
>>> measured_result("Cn1cc(-c2nonc2-c2c[nH]c3ccccc23)c2ccccc21")
1.12
>>> measured_result("C#CCC[C@@H]1O[C@@]1(C)CC/C=C(\\C)CC/C=C/C=O")
1.75
>>> measured_result("CC[n+]1cnc(N)c2c(-c3ccc(Cl)cc3)cn(-c3ccc(C)cc3)c21")
1.43
>>> measured_result("FC(F)(F)C1(Cl)C(c2ccccc2)=C1c1ccccc1")
1.49
>>> measured_result("Cc1c2cc[nH]c(=O)c2c(C)c2c1[nH]c1cc(OCCN3CCN(C)CC3)ccc12")
0.90

###

system: K-562 leukemia; test: NCI tumour cell line growth inhibition, 48 h
Measured TGI, listed per entry for reference.
MEASUREMENT TYPE: TGI

>>> measured_result("Cc1nc2sccn2c1/C=C1/C(=O)Nc2ccccc21")
"> 100 µM"
>>> measured_result("CCOC(=O)c1cccc(NC(=O)CCl)c1")
"29 µM"
>>> measured_result("C=C1C(=O)O[C@H]2[C@H]1CC/C(CNC(=O)/C=C/c1ccc(Br)cc1)=C\\CC[C@@]1(C)O[C@@H]21")
"> 33.4 µM"
>>> measured_result("COc1cc2c(cc1OC)C13CCN4C=C5CCOC6CC(=O)N2C1C6C5CC43 (stereo unspecified)")
"> 100 µM"
>>> measured_result("O=C(O)CN(c1ccccc1)S(=O)(=O)c1ccc(NC(=O)c2ccccc2)cc1")
"> 100 µM"
>>> measured_result("Cc1ccc(S(=O)(=O)c2scc(-c3ccccc3)c2C)cc1")
"> 100 µM"
>>> measured_result("C=CCNC(=S)Nc1sc2c(c1C(=O)OCC)CC(C)CC2 (stereo unspecified)")
"> 100 µM"
>>> measured_result("O=C1c2ccccc2C(=O)N1n1c(Cc2ccccc2)n[nH]c1=O")
"> 100 µM"
>>> measured_result("O=C(CSCC(=O)N/N=C/c1cc(I)cc(I)c1O)N/N=C/c1cc(I)cc(I)c1O")
"37.7 µM"
>>> measured_result("O=S(=O)(c1ccc(Br)cc1)n1c2ccc(Br)cc2c2nc3ccccc3nc21")
"> 100 µM"
>>> measured_result("O=C1c2ccccc2C2(O)Nc3cc(O)ccc3C12O (stereo unspecified)")
"> 100 µM"

###

Measured TGI, listed per entry for reference.
tested on: UO-31 renal; experiment: NCI tumour cell line growth inhibition, 48 h
MEASUREMENT TYPE: TGI

>>> measured_result("CCCN(CCC)CCCNCc1cc(I)cc(C)c1O")
"53.1 µM"
>>> measured_result("O=C1C(N2CCCC2)=CC(=O)c2c(O)c(N3CCCC3)c(Cl)c(O)c21")
"> 10 µM"
>>> measured_result("C=CCC1OC(C)(C)Oc2ccc(OCOCCOC)cc21 (configuration not stated)")
"> 100 µM"
>>> measured_result("COc1cc(CCc2cccnc2)cc(OC)c1OC")
"> 100 µM"
>>> measured_result("COc1ccc(C#Cc2ccccc2C#CCCCCO)cc1")
"39.6 µM"
>>> measured_result("Nc1nc(N)c2ncn(CC3CCC(CO)C3)c2n1 (configuration not stated)")
"> 100 µM"
>>> measured_result("Cc1ccc(NCCCN2CCN(CCCNc3ccc(C)c4sc5ccccc5c(=O)c34)CC2)c2c(=O)c3ccccc3sc12")
"> 100 µM"
>>> measured_result("Cc1ccc(C2CC(=O)CC(c3ccc(C)cc3)C23C(=O)NC(=O)NC3=O)cc1 (configuration not stated)")
"> 100 µM"
>>> measured_result("c1csc(-c2ccc(-c3ccc(-c4ccc(-c5cccs5)s4)s3)s2)c1")
"> 100 µM"
>>> measured_result("Cc1nc2sccn2c1/C=C1/C(=O)Nc2ccccc21")
"> 100 µM"
>>> measured_result("Cc1nc2c(=S)[nH]ncc2[nH]1")
"> 100 µM"
>>> measured_result("CC/C(Cc1ccccc1)=C(\\c1ccc(OCCN2CCCCCC2)cc1)c1ccc(OC(=O)NCc2ccccc2)cc1")
"7.98 µM"

The reported measurements were obtained from PubChem BioAssay (NCI).
